molecular target: Orexin/Hypocretin receptor type 1 (Homo sapiens); assay: HCRTR1 antagonism, orexin A-evoked calcium – fluorescence, Fluo-8, CHO cells, powder samples, late-stage follow-up (AID 624409); conditions: CHO/OX1R cells, Fluo-8 calcium fluorescence
Calls of active or inactive are those of the source.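 Rule for the calls: active = IC50 at or below 10 µM; inactive = IC50 above 10 µM.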
Use one of these outcomes when replying: yes (1) for active, no (0) for inactive

Record excerpt, results attached:
{"columns": ["Compound", "Target", "Category label"],
 "data": [
  ["COCCCNC(=O)CCC(=O)NNc1nc2ccccc2c2nc(-c3ccccc3)nn12", "Orexin/Hypocretin receptor type 1 (Homo sapiens)", "no (0)"],
  ["CCOC(=O)N1CCN(C(=O)CSc2ccc(-c3ccccc3)nn2)CC1", "Orexin/Hypocretin receptor type 1 (Homo sapiens)", "no (0)"],
  ["O=C(CN1C(=O)/C(=C\\c2cccc(Br)c2)Oc2ccccc21)NCC1CCCO1 (stereo not given)", "Orexin/Hypocretin receptor type 1 (Homo sapiens)", "yes (1)"],
  ["CCN(CC)c1ccc(NC(=O)Cn2c(C(C)NC(=O)c3ccccc3)nc3ccccc32)cc1 (stereo not given)", "Orexin/Hypocretin receptor type 1 (Homo sapiens)", "no (0)"]
]}

Identify the outcome logged in this assay for the compound shown: Cc1c(NS(=O)(=O)c2cccc(C(=O)OCC(=O)N(C)C3CCCCC3)c2)c(=O)n(-c2ccccc2)n1C
no (0)

* * *

target: Orexin/Hypocretin receptor type 1 (Homo sapiens); assay: HCRTR1 antagonism, orexin A-evoked calcium – fluorescence, Fluo-8, CHO cells, powder samples, late-stage follow-up (AID 624409); details: CHO/OX1R cells, Fluo-8 calcium fluorescence
Calls of active or inactive are those of the source.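 The calls were made as follows: active = IC50 at or below 10 µM; inactive = IC50 above 10 µM.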
Form entry, call: pick from class 1 for active, class 0 for inactive

{"columns": ["Molecule", "Category label"],
 "data": [
  ["CCSC1=C(C#N)C(c2ccccc2Cl)C(C(=O)c2cccs2)C(O)(C(F)(F)F)N1 (stereo not given)", "class 1"],
  ["CSc1cccc(N2CC(C(=O)NCCN3C(=O)S/C(=C\\c4cccnc4)C3=O)CC2=O)c1 (stereo not given)", "class 0"],
  ["CCc1cc2c(SCC(=O)N(CC)c3c(N)n(Cc4ccccc4)c(=O)[nH]c3=O)ncnc2s1", "class 0"]
]}

For Cc1noc(C)c1COc1ccc(C(=O)OCC(=O)N2CC(=O)Nc3ccccc32)cc1 , what call appears in the results of this test?
class 0

Could you kindly confirm the outcome this assay logged for Cc1ccccc1NC(=O)C1CCCN1S(=O)(=O)c1ccccc1C(F)(F)F (stereo not given) ?
class 0

* * *

target: Orexin/Hypocretin receptor type 1 (Homo sapiens) (UniProt O43613); assay: HCRTR1 antagonism, orexin A-evoked calcium – fluorescence, Fluo-8, CHO cells, powder samples, late-stage follow-up (AID 624409); details: CHO/OX1R cells, Fluo-8 calcium fluorescence
Sequence (O43613 whole entry, looked up): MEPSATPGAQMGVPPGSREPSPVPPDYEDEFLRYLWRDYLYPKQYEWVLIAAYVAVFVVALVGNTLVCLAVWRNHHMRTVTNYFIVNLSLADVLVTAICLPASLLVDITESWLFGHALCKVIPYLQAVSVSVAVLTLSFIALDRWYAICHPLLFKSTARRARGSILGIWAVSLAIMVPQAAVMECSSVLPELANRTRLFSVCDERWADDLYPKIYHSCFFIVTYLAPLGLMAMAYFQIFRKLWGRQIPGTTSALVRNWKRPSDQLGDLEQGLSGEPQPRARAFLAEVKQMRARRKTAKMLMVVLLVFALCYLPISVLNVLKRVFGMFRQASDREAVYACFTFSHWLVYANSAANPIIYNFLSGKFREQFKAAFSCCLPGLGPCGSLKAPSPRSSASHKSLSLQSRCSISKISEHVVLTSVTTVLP
Activity calls are given as the source filed them.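 How the source made its calls: active means IC50 at or below 10 µM; inactive means IC50 above 10 µM.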
Measured parameter: IC50

Reference set, count: 4
{"columns": ["Query smiles", "IC50"],
 "data": [
  ["Cc1cccc(C=NNC(=O)c2cc3c(s2)-c2ccccc2CC3)c1", "2660 nM"],
  ["Cc1cc(Cl)ccc1OCCCC(=O)NCCN1C(=O)S/C(=C\\c2cccnc2)C1=O", "1380 nM"],
  ["Cc1cccc(NC(=O)[C@@H]2CCCN2S(=O)(=O)c2ccc(Cl)cc2)c1", "> 19900 nM (inactive)"],
  ["Cc1ccc(-c2csc3nnc(SCC(=O)Nc4nsc(-c5ccccc5)n4)n23)cc1", "inactive"]
]}

Now examine the next entry.
So the reported IC50 for CCn1c(SCC(=O)Nc2ccc3c(c2)c2ccccc2n3CC)nnc1-c1cnccn1 , on Orexin/Hypocretin receptor type 1 (Homo sapiens) (UniProt O43613), turned out to be inactive
